Test: in vivo
Conditions: mouse, po, 2 g/kg body weight
Residues, ends and D or L forms follow the SMILES beside them.
assay readout: LD50

Value of LD50 reported for the molecule CC(C)C[C@H](NC(=O)[C@H](CCC(=O)O)NC(=O)[C@H](CO)NC(=O)[C@@H](N)CC(C)C)C(=O)O [LSEL, Leu-Ser-Glu-Leu] (H-LSEL-OH) is > 2000 mg/kg
